- TEST_TARGET: transactivating tegument protein VP16 (Human herpesvirus 1), as a GAL4-VP16 activation-domain luciferase reporter
- EXPERIMENT_DESCRIPTION: VP16 transactivation inhibitor potency, dose response, counter-screen for SRC3 inhibitor project, cell-based, luminescence, high throughput, SRC3 series (AID 602167)
- ASSAY_CONTEXT: VP16 transactivation luciferase reporter cells
The source made the active and inactive calls. How the calls were made is not given here.
MEASURED_METRIC: IC50

In [3]: df
Out[3]:
                                    compound  measured_metric       readout_value
 0                CCCc1c(C)nc2ccccc2c1SCCC#N             IC50            inactive
 1      O=S(=O)(c1ccc(F)cc1)c1snnc1-c1ccccc1             IC50            inactive
 2  COc1cc(/C=N/NC(=Nc2ccc(C)cc2)c2nc3ccccc3s2)ccc1O             IC50            inactive
 3      O=C(CCCc1nc(-c2ccccc2Cl)no1)NC1CCCC1             IC50            inactive
 4  Nc1nc2c(nnn2C2CC(O)C(CO)O2)c(=O)[nH]1 (configuration not stated)             IC50            inactive
 5  CCOc1ccc(/C=C2\SC(=S)N(CCCC(=O)NCCCN3CCOCC3)C2=O)cc1             IC50            inactive
 6   O=C(Nc1nc2ccccc2s1)C1c2ccccc2Oc2ccccc21             IC50            inactive
 7            Cc1cccc(CN2CCN(C(=O)CCl)CC2)c1             IC50  > 12 µM (inactive)
 8   CCOc1ccc(Nc2cc(C)nc(-n3nc(C)cc3C)n2)cc1             IC50            inactive
 9          CCN(c1cccc(C)c1)c1ncnc2nc[nH]c12             IC50            inactive
10     CCCNC(=O)c1nnsc1S(=O)(=O)c1ccc(Cl)cc1             IC50            inactive
11  CC(=O)Nc1ccc(SCC(=O)c2cc(C)n(-c3ccccc3F)c2C)cc1             IC50  > 12 µM (inactive)

###

- TEST_TARGET: transactivating tegument protein VP16 (Human herpesvirus 1), as a GAL4-VP16 activation-domain luciferase reporter
- EXPERIMENT_DESCRIPTION: VP16 transactivation inhibitor potency, dose response, counter-screen for SRC3 inhibitor project, cell-based, luminescence, high throughput, SRC3 series (AID 602167)
- ASSAY_CONTEXT: VP16 transactivation luciferase reporter cells
The source made the active and inactive calls. How the calls were made is not given here.
MEASURED_METRIC: IC50

>>> df
                                   compound         readout_value
0     Cc1ccc(C(=O)O/N=C(\N)c2ccccn2)c(Cl)c1              inactive
1          Cc1nc(N)nc(N)c1-c1ccc(Cl)c(Cl)c1  > 11.9 µM (inactive)
2  O=C(CCl)N(c1ccccc1)C1CCS(=O)(=O)C1 (stereo unspecified)              inactive
3       CC(C)(C)C(=O)Nc1ccc(N=Nc2ccccc2)cc1  > 35.9 µM (inactive)
4          O=[N+]([O-])c1cccc2c1ccc1ncccc12              inactive
5  COC(=O)c1cc(S(=O)(=O)NCCc2ccc(Cl)cc2)c[nH]1              inactive

###

- TEST_TARGET: transactivating tegument protein VP16 (Human herpesvirus 1), as a GAL4-VP16 activation-domain luciferase reporter
- EXPERIMENT_DESCRIPTION: VP16 transactivation inhibitor potency, dose response, counter-screen for SRC3 inhibitor project, cell-based, luminescence, high throughput, SRC3 series (AID 602167)
- ASSAY_CONTEXT: VP16 transactivation luciferase reporter cells
Calls of active or inactive are those of the source. How the calls were made is not given here.
MEASURED_METRIC: IC50

>>> df
                                    molecule         readout_value
 0  COc1ccc(COC(=O)C2=C(C)NC(=O)NC2c2ccc(F)cc2)cc1 (stereo not drawn)               9.08 µM
 1  Cc1nc(N2CCC(C(N)=O)CC2)c2c(-c3cccs3)csc2n1              inactive
 2             NC(=S)N/N=C1\CCSc2ccc(Cl)cc21              inactive
 3  COc1ccccc1C(=O)N(CCC1CCCN1C)c1nc2ccccc2s1 (stereo not drawn)                7.9 µM
 4             Cc1ccc(N=Nc2ccc3ccccc3c2O)cc1              inactive
 5  C#CC(=O)N(c1cc(OC)ccc1OC)C(C(=O)NC1CCCC1)c1cccs1 (stereo not drawn)  > 35.9 µM (inactive)
 6  COc1cccc(/C=N/Nc2cc(-n3nc(C)cc3-c3ccccc3)ncn2)c1O               6.45 µM
 7  O=C(NCCCn1ccnc1)c1ccc(N2CCCCCC2)c([N+](=O)[O-])c1              inactive
 8  CCOc1ccc(CC(=O)Nc2ccc(NC(=O)c3ccco3)cc2)cc1OCC               7.73 µM
 9       COc1ccc(OC)c(N/C=C/C(=O)c2ccccc2)c1              inactive
10      Cc1nnc(SC(=O)N2c3ccccc3Sc3ccccc32)s1               7.54 µM
11  C=CC[n+]1c(-c2ccc(C)cc2)csc1Nc1ccc(NC(C)=O)cc1  > 35.9 µM (inactive)
12  CCCC(=O)NC(c1ccc(Cl)cc1)c1ccc2cccnc2c1O (stereo not drawn)                4.4 µM
13  O=[N+]([O-])c1ccc(N(CCO)CCO)c2c1no[n+]2[O-]               5.59 µM
14  COc1cc([C@@H]2c3cc4c(cc3[C@@H](O[C@@H]3O[C@@H]5CO[C@@H](C)O[C@H]5[C@H](O)[C@H]3O)[C@H]3COC(=O)[C@H]23)OCO4)cc(OC)c1O  > 35.9 µM (inactive)
15  Cc1cccc(Oc2sc(C(=O)c3ccccc3)c(N)c2C#N)c1              inactive
16   CC(=O)c1ccc(Nc2c3c(nc4ccccc24)CCCC3)cc1              inactive
17           Cc1ccc(C(=O)Nc2cnc3ccccc3c2)cc1               8.49 µM
18  C=CCOc1ccc(/C=C2\SC(=S)N(CCC(=O)O)C2=O)cc1  > 35.9 µM (inactive)
19  O=C(N/N=C\c1ccc([N+](=O)[O-])o1)C1COc2ccccc2O1 (stereo not drawn)              inactive
20  CC(=O)c1cccc(NC(=O)Nc2ccc3c(c2)N(C)C(=O)CS3)c1              inactive
21        O=C(CCl)Nc1cccc(-c2cnc3ccccc3n2)c1              inactive
22  O=c1[nH]cnc2c1nnn2C1OC(CO)C(O)C1O (stereo not drawn)              inactive
23             NC(=S)N/N=C1\CCOc2ccc(Cl)cc21              inactive
24           NC(=O)c1cc(Sc2ccccc2)nc2ccccc12              inactive
25  COc1cccc(CNc2ncnc3ccc(-c4c(C)noc4C)cc23)c1  > 35.9 µM (inactive)
26  Cc1ncc(CO)c(/C=N/NC(=O)c2cc3c(s2)CCCC3)c1O               6.04 µM
27                 Cc1cc2nccc(-c3ccncc3)n2n1              inactive
28  CCOc1ccc(/C=C2\SC(=S)N(CCC(=O)O)C2=O)cc1  > 35.9 µM (inactive)
29  COc1cc2oc(=O)cc(-c3ccc(-c4ccc(CO)cc4)cc3)c2c(OC)c1OC               5.56 µM
30  Cc1cc(-c2nnc(SCC(=O)Nc3ccccc3C(F)(F)F)o2)c(C)n1-c1ccccc1  > 35.9 µM (inactive)
31              C(=NNc1ccc2ccccc2n1)c1ccccn1              inactive
32              CCC(=O)c1ccc(O)c(CC=C(C)C)c1               9.84 µM

###

- TEST_TARGET: transactivating tegument protein VP16 (Human herpesvirus 1), as a GAL4-VP16 activation-domain luciferase reporter
- EXPERIMENT_DESCRIPTION: VP16 transactivation inhibitor potency, dose response, counter-screen for SRC3 inhibitor project, cell-based, luminescence, high throughput, SRC3 series (AID 602167)
- ASSAY_CONTEXT: VP16 transactivation luciferase reporter cells
Active and inactive are the calls of the source. How the calls were made is not given here.
Possible outcomes: active, inactive

In [3]: df
Out[3]:
                                   compound  category_label
0  COc1cccc(/C=N/Nc2ccc([N+](=O)[O-])cn2)c1O          active
1          O=C(NCCc1ccccc1)c1ccc2c(c1)OCCO2          active
2   Clc1ccc(-c2csc3ncnc(NCCN4CCOCC4)c23)cc1          active
3  CC[C@@]1(O)C(=O)OCc2c1cc1n(c2=O)Cc2cc3c(NC(=O)CN)cccc3nc2-1        inactive
4        Cc1c(Cl)cccc1NC(=O)Nc1ccccc1C(N)=O        inactive
5      CCCCN1C=CC(=C2C(=O)c3ccccc3C2=O)C=C1          active
